Hi there, I'd appreciate the recorded response vs control in vivo at 20 mg/kg/day for every entry that follows.
tested on: serum cholesterol and serum triglyceride levels; assay: Testing of normal mice: hypolipidemic activity in CF1 mice; assay type: in vivo, CF1 male mice; conditions: Mus musculus, 216 h; normal CF1 mice, 20 mg/kg/d ip, Day 9; read-out: Serum Cholesterol, Day 9
# unit: % | format: bare number

Task: Given COc1ccc(-n2c(=O)n(C(=O)c3ccccc3)n(C(=O)c3ccccc3)c2=O)cc1 [Q] , state its recorded response vs control in vivo at 20 mg/kg/day.
Result: 67

Task: Do the same for CC(=O)n1[nH]c(=O)n(-c2ccccc2)c1=O [A] please
Result: 67

Task: Do the same for O=c1[nH][nH]c(=O)n1-c1ccc([N+](=O)[O-])cc1 [H] please
Result: 73

Task: Do the same for CCOC(=O)c1nc(=O)n(-c2ccc(Cl)cc2)c(=O)[nH]1 [O] please
Result: 63

Task: Do the same for CCCCCC(=O)n1[nH]c(=O)n(-c2ccc(Cl)cc2)c1=O [V] please
Result: 77

Task: Do the same for CCC(=O)n1c(=O)n(-c2ccc([N+](=O)[O-])cc2)c(=O)n1C(=O)CC [Compound S] please
Result: 72

Task: Do the same for CCOC(=O)c1nc(=O)n(-c2ccccc2)c(=O)[nH]1 [Compound N] please
Result: 63

Task: Do the same for CCOC(=O)n1[nH]c(=O)n(-c2ccccc2)c1=O [C] please
Result: 73

Task: Do the same for Cn1c(=O)[nH][nH]c1=O [K, 4-methyl-1,2,4-triazolidine-3,5-dione] please
Result: 88

Task: Do the same for CCC(=O)n1c(=O)n(-c2ccc(OC)cc2)c(=O)n1C(=O)CC [R] please
Result: 62

Task: Do the same for CC(=O)n1c(=O)n(-c2ccc(Cl)cc2)c(=O)n1C(C)=O [U] please
Result: 72

Task: Do the same for CC(=O)n1[nH]c(=O)n(-c2ccc(Cl)cc2)c1=O [Compound D] please
Result: 73

Task: Do the same for CCCCn1c(=O)[nH][nH]c1=O [G] please
Result: 71

Task: Do the same for O=c1[nH][nH]c(=O)n1-c1ccccc1 [E, 4-phenyl-1,2,4-triazolidine-3,5-dione] please
Result: 71

Task: Do the same for O=c1[nH][nH]c(=O)[nH]1 [Parent, 1,2,4-triazolidine-3,5-dione] please
Result: 81

Task: Do the same for O=c1[nH][nH]c(=O)n1-c1ccc(Cl)cc1 [J] please
Result: 90

Task: Do the same for COc1ccc(-n2c(=O)n(C(C)=O)n(C(C)=O)c2=O)cc1 [P] please
Result: 76

Task: Do the same for COc1ccc(-n2c(=O)[nH][nH]c2=O)cc1 [F] please
Result: 75

Task: Do the same for CC(=O)n1c(=O)n(-c2ccccc2)c(=O)n1C(C)=O [B] please
Result: 70

Values compiled from patent US4866058A.
